- test_system: Acetylcholinesterase (Anopheles gambiae) (UniProt Q869C3)
- Sequence (Q869C3 39-737 limits assumed): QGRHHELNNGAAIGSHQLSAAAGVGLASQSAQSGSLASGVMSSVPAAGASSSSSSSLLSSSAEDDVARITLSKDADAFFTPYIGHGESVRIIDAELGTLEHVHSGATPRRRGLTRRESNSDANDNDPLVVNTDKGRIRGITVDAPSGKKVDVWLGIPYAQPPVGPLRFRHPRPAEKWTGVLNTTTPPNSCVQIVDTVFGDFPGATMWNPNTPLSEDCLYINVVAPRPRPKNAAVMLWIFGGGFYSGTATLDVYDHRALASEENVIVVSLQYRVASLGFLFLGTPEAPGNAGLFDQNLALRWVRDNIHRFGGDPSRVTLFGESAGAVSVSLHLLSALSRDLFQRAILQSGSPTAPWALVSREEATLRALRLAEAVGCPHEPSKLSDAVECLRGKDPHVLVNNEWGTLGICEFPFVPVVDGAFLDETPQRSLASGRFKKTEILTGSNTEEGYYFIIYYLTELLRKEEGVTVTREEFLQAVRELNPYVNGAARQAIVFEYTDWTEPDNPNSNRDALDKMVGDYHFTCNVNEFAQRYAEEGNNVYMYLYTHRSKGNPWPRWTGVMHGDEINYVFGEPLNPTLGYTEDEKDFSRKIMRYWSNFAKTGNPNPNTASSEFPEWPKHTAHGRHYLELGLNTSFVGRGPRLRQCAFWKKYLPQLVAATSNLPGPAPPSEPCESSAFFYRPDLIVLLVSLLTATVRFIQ
- run_description: Inhibition of Anopheles gambiae AChE
- setup_conditions: concentration not given here
Field: inhibition. Provide a value for each of the compounds that follow.
Your answer is read as %, so omit the unit and give the number.

Request: # inhibition lookup, item CNC(=O)Oc1cccc2c1OC(C)(C)C2
Response: 49

Request: Would you mind doing CNC(=O)Oc1ccccc1OC(C)C as well?
Response: 49

Request: Would you mind doing CNC(=O)Oc1cccc2ccccc12 as well?
Response: 49

Request: Would you mind doing CNC(=O)Oc1cccc2c1OC(C)(C)O2 as well?
Response: 49

====

- run_description: Selectivity ratio of Ki for Anopheles gambiae AChE to Ki for human recombinant AChE
The label depends only on Ratio Ki: Satisfied if it is at least 20, Not satisfied if it is smaller.

Request: Record CNC(=O)Oc1ccccc1SC ; criterion: Ratio Ki no lower than 20. Met?
Response: Not satisfied

Request: Would you mind doing CNC(=O)Oc1ccccc1OCC1CCCC1 as well?
Response: Satisfied

Request: Would you mind doing CNC(=O)Oc1ccccc1C as well?
Response: Not satisfied

Request: Would you mind doing C=C(C)COc1ccccc1OC(=O)NC as well?
Response: Satisfied

Request: Would you mind doing CNC(=O)Oc1cccc(CCC(C)C)c1 as well?
Response: Satisfied

Request: Would you mind doing CNC(=O)Oc1ccccc1OCC1CCCCC1 as well?
Response: Not satisfied

Request: Would you mind doing CNC(=O)Oc1cccc(C)c1 as well?
Response: Satisfied

Request: Would you mind doing CCC(C)(C)c1cccc(OC(=O)NC)c1 as well?
Response: Not satisfied

Request: Would you mind doing CNC(=O)Oc1ccccc1 as well?
Response: Not satisfied

Request: Would you mind doing CNC(=O)Oc1ccccc1OC(C)C as well?
Response: Not satisfied

Request: Would you mind doing CNC(=O)Oc1cccc2c1OC(C)(C)O2 as well?
Response: Not satisfied

Request: Would you mind doing CNC(=O)Oc1ccccc1SCC(C)C as well?
Response: Satisfied

Request: Would you mind doing CCC(C)CSc1ccccc1OC(=O)NC (racemic) as well?
Response: Satisfied

Request: Would you mind doing CCCC(C)(C)c1cccc(OC(=O)NC)c1 as well?
Response: Not satisfied

Request: Would you mind doing CCC(CC)CCc1ccccc1OC(=O)NC as well?
Response: Satisfied

Request: Would you mind doing CNC(=O)Oc1cccc(C(C)(C)C)c1 as well?
Response: Not satisfied

Request: Would you mind doing CCC(C)c1cccc(OC(=O)NC)c1 (racemic) as well?
Response: Not satisfied

Request: Would you mind doing C=C(C)CSc1ccccc1OC(=O)NC as well?
Response: Satisfied

Request: Would you mind doing CNC(=O)Oc1cccc([Si](C)(C)C)c1 as well?
Response: Not satisfied

Request: Would you mind doing CCCCc1cccc(OC(=O)NC)c1 as well?
Response: Satisfied

====

- test_system: Acetylcholinesterase (Anopheles gambiae) (UniProt Q869C3)
- run_description: Inhibition of Anopheles gambiae AChE expressed in Escherichia coli after 6 mins by Ellman assay
measure_name: apparent second-order inhibition rate constant ki
Please answer using a numeric value trailed by its unit.

Request: # apparent second-order inhibition rate constant ki lookup, item CNC(=O)Oc1cccc2c1OC(C)(C)O2
Response: 14000 M⁻¹ s⁻¹

Request: Would you mind doing CCCC(C)(C)c1cccc(OC(=O)NC)c1 as well?
Response: 112000 M⁻¹ s⁻¹

Request: Would you mind doing CNC(=O)Oc1cccc(C(C)(C)C(F)(F)F)c1 as well?
Response: 26300 M⁻¹ s⁻¹

Request: Would you mind doing CCC(C)(C)c1cccc(OC(=O)NC)c1 as well?
Response: 127000 M⁻¹ s⁻¹

Request: Would you mind doing CNC(=O)Oc1ccccc1SCC(C)C as well?
Response: 8770 M⁻¹ s⁻¹

====

- test_system: UniProt:P22303
- run_description: Inhibition of human recombinant AChE after 6 mins by Ellman assay
Field: Kinact. Provide a value for each of the compounds that follow.
Your answer is read as M⁻¹ s⁻¹, so omit the unit and give the number.

Request: # Kinact lookup, item CCCC(C)(C)c1cccc(OC(=O)NC)c1
Response: 22700

Request: Would you mind doing CNC(=O)Oc1cccc(C)c1 as well?
Response: 8.67

Request: Would you mind doing CCC(C)(C)c1cccc(OC(=O)NC)c1 as well?
Response: 13100

Request: Would you mind doing C=C(C)CSc1ccccc1OC(=O)NC as well?
Response: 125

====

- test_system: Acetylcholinesterase (Homo sapiens) (UniProt P22303)
- Sequence (P22303 whole entry): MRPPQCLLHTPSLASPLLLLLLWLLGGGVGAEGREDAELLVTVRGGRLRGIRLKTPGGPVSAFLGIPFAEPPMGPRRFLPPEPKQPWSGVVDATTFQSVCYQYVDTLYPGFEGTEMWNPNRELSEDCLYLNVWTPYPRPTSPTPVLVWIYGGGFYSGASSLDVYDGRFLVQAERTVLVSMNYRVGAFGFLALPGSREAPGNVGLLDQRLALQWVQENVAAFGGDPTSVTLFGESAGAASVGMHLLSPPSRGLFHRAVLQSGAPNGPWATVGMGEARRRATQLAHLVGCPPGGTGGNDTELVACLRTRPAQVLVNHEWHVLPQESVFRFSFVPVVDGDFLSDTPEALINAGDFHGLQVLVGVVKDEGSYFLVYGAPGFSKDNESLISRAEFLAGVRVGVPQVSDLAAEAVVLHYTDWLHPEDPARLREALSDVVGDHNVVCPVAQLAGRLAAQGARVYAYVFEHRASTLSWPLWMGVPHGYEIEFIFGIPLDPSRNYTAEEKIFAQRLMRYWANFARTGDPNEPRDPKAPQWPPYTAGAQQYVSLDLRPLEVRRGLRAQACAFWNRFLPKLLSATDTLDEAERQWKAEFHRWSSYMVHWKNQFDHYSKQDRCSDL
- run_description: Inhibition of human recombinant AChE after 6 mins by Ellman assay
Field: Kinact. Provide a value for each of the molecules that follow.
Your answer is read as M⁻¹ s⁻¹, so omit the unit and give the number.

Request: # Kinact lookup, item CNC(=O)Oc1ccccc1OCC1CCCC1
Response: 4.67

Request: Would you mind doing CCC(C)CSc1ccccc1OC(=O)NC (racemic) as well?
Response: 280

Request: Would you mind doing CNC(=O)Oc1cccc(C(C)C)c1 as well?
Response: 6380

Request: Would you mind doing CCCc1cccc(OC(=O)NC)c1 as well?
Response: 1060

Request: Would you mind doing CCC(C)COc1ccccc1OC(=O)NC (racemic) as well?
Response: 9.67

Request: Would you mind doing CNC(=O)Oc1ccccc1SC as well?
Response: 85

Request: Would you mind doing CNC(=O)Oc1cccc([Si](C)(C)C)c1 as well?
Response: 1130

Request: Would you mind doing CC[Si](C)(C)c1cccc(OC(=O)NC)c1 as well?
Response: 1830

Request: Would you mind doing CNC(=O)Oc1ccccc1OCC(C)C as well?
Response: 10.8

Request: Would you mind doing CNC(=O)Oc1ccccc1OC(C)C as well?
Response: 283

Request: Would you mind doing CNC(=O)Oc1ccccc1SCC(C)C as well?
Response: 108

Request: Would you mind doing CCCCc1cccc(OC(=O)NC)c1 as well?
Response: 535

Request: Would you mind doing CCC(C)c1cccc(OC(=O)NC)c1 (racemic) as well?
Response: 31800

Request: Would you mind doing CNC(=O)Oc1ccccc1 as well?
Response: 3.33

Request: Would you mind doing CNC(=O)Oc1cccc2c1OC(C)(C)C2 as well?
Response: 7130

Request: Would you mind doing CNC(=O)Oc1cccc(CC(C)C)c1 as well?
Response: 91.7

Request: Would you mind doing C=C(C)COc1ccccc1OC(=O)NC as well?
Response: 12.3

Request: Would you mind doing CCC(C)(CC)c1cccc(OC(=O)NC)c1 as well?
Response: 9220

Request: Would you mind doing CNC(=O)Oc1cccc(C(C)(C)C)c1 as well?
Response: 2100

Request: Would you mind doing CNC(=O)Oc1cccc(C(C)(C)C(F)(F)F)c1 as well?
Response: 2320

Request: Would you mind doing CCC(C)(c1cccc(OC(=O)NC)c1)C(F)(F)F (racemic) as well?
Response: 6250

Request: Would you mind doing CCC(CC)COc1cccc(OC(=O)NC)c1 as well?
Response: 83.3

Request: Would you mind doing CNC(=O)Oc1ccccc1OCC1CCCCC1 as well?
Response: 3.5

Request: Would you mind doing CNC(=O)Oc1ccccc1C as well?
Response: 4

Request: Would you mind doing CCC(CC)CCc1ccccc1OC(=O)NC as well?
Response: 12.5

Request: Would you mind doing CNC(=O)Oc1cccc(CCC(C)C)c1 as well?
Response: 86.7

Request: Would you mind doing CNC(=O)Oc1cccc2c1OC(C)(C)O2 as well?
Response: 1850

Request: Would you mind doing CCC(CC)COc1ccccc1OC(=O)NC as well?
Response: 8

Request: Would you mind doing CCC(CC)CSc1ccccc1OC(=O)NC as well?
Response: 242

====

Field: log10 of apparent second-order inhibition rate constant ki. Provide a value for each of the compounds that follow.
- test_system: Acetylcholinesterase (Anopheles gambiae)
- run_description: Inhibition of Anopheles gambiae AChE expressed in Escherichia coli after 6 mins by Ellman assay
Plainly stated, the numbers are log10 of apparent second-order inhibition rate constant ki given in M⁻¹ s⁻¹.

Request: # log10 of apparent second-order inhibition rate constant ki lookup, item C=C(C)CSc1ccccc1OC(=O)NC
Response: 3.84

Request: Would you mind doing C=C(C)COc1ccccc1OC(=O)NC as well?
Response: 3.02

Request: Would you mind doing CNC(=O)Oc1ccccc1OCC(C)C as well?
Response: 2.94

Request: Would you mind doing CCC(C)COc1ccccc1OC(=O)NC (racemic) as well?
Response: 3.32

Request: Would you mind doing CCC(C)(c1cccc(OC(=O)NC)c1)C(F)(F)F (racemic) as well?
Response: 4.74

Request: Would you mind doing CNC(=O)Oc1ccccc1C as well?
Response: 1.34

Request: Would you mind doing CCC(CC)COc1ccccc1OC(=O)NC as well?
Response: 3.63

Request: Would you mind doing CNC(=O)Oc1cccc(C)c1 as well?
Response: 2.46

Request: Would you mind doing CCC(C)(CC)c1cccc(OC(=O)NC)c1 as well?
Response: 4.94

Request: Would you mind doing CNC(=O)Oc1ccccc1OCC1CCCCC1 as well?
Response: 0.90

Request: Would you mind doing CNC(=O)Oc1cccc([Si](C)(C)C)c1 as well?
Response: 4.03

Request: Would you mind doing CNC(=O)Oc1cccc(C(C)(C)C)c1 as well?
Response: 4.40

Request: Would you mind doing CCC(C)c1cccc(OC(=O)NC)c1 (racemic) as well?
Response: 5.22

Request: Would you mind doing CCC(CC)COc1cccc(OC(=O)NC)c1 as well?
Response: 2.68

These data points were gathered from ChEMBL document CHEMBL2046342.
